Known selectivity ratio of a selection of molecules
ASSAY_SUMMARY: Selectivity index, ratio of GI50 for human HL-60 cells to GI50 for antitrypanosomal activity against Trypanosoma brucei brucei S427
Format: toxicity
CONDITIONS_USED: read-out: RatioGI50
Reply with just the number.

C#CCOC(=O)[C@H](CC)[C@H]1CC[C@H](C)[C@H]([C@@H](C)[C@H](O)[C@H](C)C(=O)[C@H](CC)[C@H]2O[C@]3(C=C[C@H](OC(C)=O)[C@]4(CC[C@@](C)([C@H]5CC[C@](O)(CC)[C@H](C)O5)O4)O3)[C@H](C)C[C@@H]2C)O1: 123
C#CCNC(=O)[C@H](CC)[C@H]1CC[C@H](C)[C@H]([C@@H](C)[C@H](O)[C@H](C)C(=O)[C@H](CC)[C@H]2O[C@]3(C=C[C@H](O)[C@]4(CC[C@@](C)([C@H]5CC[C@](O)(CC)[C@H](C)O5)O4)O3)[C@H](C)C[C@@H]2C)O1: 15.1
C#CCNC(=O)[C@H](CC)[C@H]1CC[C@H](C)[C@H]([C@@H](C)[C@H](O)[C@H](C)C(=O)[C@H](CC)[C@H]2O[C@]3(C=C[C@H](OC(=O)OCC)[C@]4(CC[C@@](C)([C@H]5CC[C@](O)(CC)[C@H](C)O5)O4)O3)[C@H](C)C[C@@H]2C)O1: 106

Entry under test: CCCCCCCCNC(=O)O[C@H]1C=C[C@]2(O[C@H]([C@@H](CC)C(=O)[C@@H](C)[C@@H](O)[C@H](C)[C@@H]3O[C@@H]([C@@H](CC)C(=O)O)CC[C@@H]3C)[C@@H](C)C[C@H]2C)O[C@@]12CC[C@@](C)([C@H]1CC[C@](O)(CC)[C@H](C)O1)O2 . Its selectivity ratio was 123

The molecule identified as CC[C@@H](C(=O)[C@@H](C)[C@@H](O)[C@H](C)[C@@H]1O[C@@H]([C@@H](CC)C(=O)O)CC[C@@H]1C)[C@H]1O[C@]2(C=C[C@H](OC(C)=O)[C@]3(CC[C@@](C)([C@H]4CC[C@](O)(CC)[C@H](C)O4)O3)O2)[C@H](C)C[C@@H]1C registered its selectivity ratio at 21.2

# selectivity ratio of C#CCNC(=O)[C@H](CC)[C@H]1CC[C@H](C)[C@H]([C@@H](C)[C@H](O)[C@H](C)C(=O)[C@H](CC)[C@H]2O[C@]3(C=C[C@H](OC(C)=O)[C@]4(CC[C@@](C)([C@H]5CC[C@](O)(CC)[C@H](C)O5)O4)O3)[C@H](C)C[C@@H]2C)O1 = 2

The value of selectivity ratio measured for the molecule CC[C@@H](C(=O)[C@@H](C)[C@@H](O)[C@H](C)[C@@H]1O[C@@H]([C@@H](CC)C(=O)O)CC[C@@H]1C)[C@H]1O[C@]2(C=C[C@H](OC(=O)Oc3ccccc3)[C@]3(CC[C@@](C)([C@H]4CC[C@](O)(CC)[C@H](C)O4)O3)O2)[C@H](C)C[C@@H]1C turned out to be 106

Quick note, selectivity ratio for CC[C@@H](C(=O)[C@@H](C)[C@@H](O)[C@H](C)[C@@H]1O[C@@H]([C@@H](CC)C(=O)O)CC[C@@H]1C)[C@H]1O[C@]2(C=C[C@H](OC(=O)OCC(C)(C)C)[C@]3(CC[C@@](C)([C@H]4CC[C@](O)(CC)[C@H](C)O4)O3)O2)[C@H](C)C[C@@H]1C landed at 2

Summary for this molecule, CC[C@@H](C(=O)[C@@H](C)[C@@H](O)[C@H](C)[C@@H]1O[C@@H]([C@@H](CC)C(=O)O)CC[C@@H]1C)[C@H]1O[C@]2(C=C[C@H](OC(=O)Nc3ccccc3)[C@]3(CC[C@@](C)([C@H]4CC[C@](O)(CC)[C@H](C)O4)O3)O2)[C@H](C)C[C@@H]1C : selectivity ratio is 18.2
